- System: Fibroblast
- method.description: Multiplex assay against human fibroblast
- Assay type: toxicity, cell-based
- test.conditions: 48 h, 1 µM, compound concentration 1 uM, replicate 2
Label Not fulfilled if Population Mitotic Cells (%) falls below 50%; label Fulfilled in every other case.

- compound: "CCc1nn2c(C)cc(C)nc2c1Cc1ccc(-c2nnc(C3CCNCC3)o2)cc1"
  study.system: "Fibroblast"
  class.label: "Not fulfilled"
- compound: "O=C(NCCNCC(O)COc1ccc(O)cc1)N1CCOCC1.O=C(NCCNCC(O)COc1ccc(O)cc1)N1CCOCC1.O=C(O)/C=C/C(=O)O (stereo not drawn) [XAMOTEROL FUMARATE]"
  study.system: "Fibroblast"
  class.label: "Fulfilled"
- compound: "Cc1sc2c(c1C)C(c1ccc(Cl)cc1)=N[C@H](CC(=O)OC(C)(C)C)c1nnc(C)n1-2"
  study.system: "Fibroblast"
  class.label: "Not fulfilled"
- compound: "COc1c(Nc2ccc(S(C)(=O)=O)nc2C)ncnc1OC1CCN(C(=O)OC(C)C)CC1"
  study.system: "Fibroblast"
  class.label: "Fulfilled"
- compound: "Cc1nn(C)c2nc(NNC(=O)Nc3cc(Cl)nc(Cl)c3)cc(C(C)C)c12"
  study.system: "Fibroblast"
  class.label: "Not fulfilled"
- compound: "CC(C)C[C@H](CO)Nc1nc(S[C@@H](C)c2ccccc2)nc2nc(N)sc12"
  study.system: "Fibroblast"
  class.label: "Fulfilled"

INPUT: Does Population Mitotic Cells (%) meet or surpass 50% for O=C(O)CCC/C=C\CC1C(O)CC(O)C1/C=C/C(O)COc1cccc(Cl)c1 (stereo not drawn) ?
OUTPUT: Fulfilled

INPUT: For this compound, is measured Population Mitotic Cells (%) 50% or higher? Cc1cc(O)c(-c2ccc([C@@H](C)CN(C)C)cc2)c2c1[nH]c(=O)c1sccc12
OUTPUT: Not fulfilled

----------
- Test system: HEK-293T
- method.description: Multiplex assay against HEK293T
- Assay type: toxicity, cell-based
- test.conditions: human, 48 h, 10 µM, compound concentration 10 uM, replicate 1
Non-standard residues stand in square brackets, D forms with d. Residues, ends and D or L forms follow the SMILES beside them.
observable: Population Pyknosed Nuclei (%)
# number only, unit % dropped from output

Example results:
- molecule: "CN(C)C(=O)Cn1cc(-c2ccc(-c3nnc4ccccn34)cc2)cn1"
  Population Pyknosed Nuclei (%): 6
- molecule: "COc1cc(C(=O)N2CC[C@@H](O)[C@@H](N)C2)cc2nc(-c3cc4ccccc4n3CC3CC3)n(C)c12.Cl"
  Population Pyknosed Nuclei (%): 17
- molecule: "CC(C)C[C@@H]1NC(=O)[C@@H](C(C)C)NC(=O)[C@@H]2CCCN2C(=O)[C@@H](CC(=O)O)NC(=O)[C@@H](Cc2c[nH]c3ccccc23)NC1=O [BQ-123] (cyclo(L[dW][dD]P[dV]))"
  Population Pyknosed Nuclei (%): 6

Form field Population Pyknosed Nuclei (%) for item Cn1cc(C(=O)OCC2CCN(CCNS(C)(=O)=O)CC2)c2ccccc21 on HEK-293T: 6

Case Cc1c(Cc2ccc3ccccc3n2)c2cc(F)ccc2n1CC(=O)O , HEK-293T, Population Pyknosed Nuclei (%) recorded as 9

Known value: HEK-293T Population Pyknosed Nuclei (%) of the molecule CN1CCN(c2ccc(Nc3c4ccccc4nc4ccccc34)cc2)CC1.Cl.Cl.O equals 9

Param item: COc1cc(Nc2ncc3c(n2)-c2ccc(Cl)cc2C(c2c(F)cccc2OC)=NC3)ccc1C(=O)O ; param system: HEK-293T; output Population Pyknosed Nuclei (%): 7

Result for Cc1cc(-c2ccc3c(c2)CC[C@H]3N2CC3(CCN(C(=O)Cc4cn5cc(C)sc5n4)CC3)C2)ncn1 , tested on HEK-293T, Population Pyknosed Nuclei (%): 8

----------
- Test system: Fibroblast
- method.description: Multiplex assay against human fibroblast
- Format: toxicity, cell-based
- test.conditions: 24 h, 1 µM, compound concentration 1 uM, replicate 1
Each entry below carries its recorded Total Cell Count.
Enter the number alone.

Consider the worked cases shown below.
- compound: "COc1ccc2c(c1OCc1ccccc1)C[C@@H](C(=O)O)N(C(=O)C(c1ccccc1)c1ccccc1)C2 [OLODANRIGAN]"
  value.observed: 159
- compound: "CN1CCC(C(=O)c2cccc(NC(=O)c3c(F)cc(F)cc3F)n2)CC1"
  value.observed: 156

So, C[C@@H]1CC(=O)Nc2cccc(-c3ccc4c(c3)c(-c3cnn(C)c3)nn4C)c2N1 ? Its Total Cell Count was 122

The recorded Total Cell Count for entry COCCn1c(C)c(C)s/c1=N\C(=O)C1C(C)(C)C1(C)C equals 122

----------
- System: U2OS
- method.description: Multiplex assay against U2OS
- Format: toxicity, cell-based
- test.conditions: human, 48 h, 1 µM, compound concentration 1 uM, replicate 1
// reported Population Tubulin-Different-Phenotype (%) per item
Give just the number in %; leave the unit off.

- compound: "OCCCNc1cc(-c2ccnc(Nc3cccc(Cl)c3)n2)ccn1"
  unit.abbrev: "%"
  value.observed: 26
- compound: "CCC(=O)OCC(=O)[C@@]1(OC(=O)CC)[C@@H](C)C[C@H]2[C@@H]3CCC4=CC(=O)C=C[C@]4(C)[C@@]3(Cl)[C@@H](O)C[C@@]21C [BECLOMETHASONE DIPROPIONATE]"
  unit.abbrev: "%"
  value.observed: 2
- compound: "CN1C[C@H](C(=O)N[C@]2(C)O[C@@]3(O)[C@@H]4CCCN4C(=O)[C@H](Cc4ccccc4)N3C2=O)C[C@@H]2c3cccc4[nH]cc(c34)C[C@H]21.CS(=O)(=O)O [DIHYDROERGOTAMINE MESYLATE]"
  unit.abbrev: "%"
  value.observed: 1

Note to self: Population Tubulin-Different-Phenotype (%) of C[C@H](NC(=O)CNC(=O)c1cccc(Cl)c1)c1ccccc1 with U2OS was 1

----------
- System: U2OS
- method.description: Multiplex assay against U2OS
- Assay type: toxicity, cell-based
- test.conditions: human, 48 h, 10 µM, compound concentration 10 uM, replicate 2
The entries below come with measured Population Membrane Permeable-Phenotype (%) values attached.
Expressed in %, but write only the number.

- molecule: "Cn1cc(C(=O)OCC2CCN(CCNS(C)(=O)=O)CC2)c2ccccc21"
  value.observed: 13
- molecule: "O=C(NCCNCC(O)COc1ccc(O)cc1)N1CCOCC1.O=C(NCCNCC(O)COc1ccc(O)cc1)N1CCOCC1.O=C(O)/C=C/C(=O)O (stereo not given) [XAMOTEROL FUMARATE]"
  value.observed: 4
- molecule: "Cl.Cl.OCCOCCN1CCN(C(c2ccccc2)c2ccc(Cl)cc2)CC1 (stereo not given) [HYDROXYZINE HYDROCHLORIDE]"
  value.observed: 10
- molecule: "C=CCN1C[C@H](C(=O)N(CCCN(C)C)C(=O)NCC)C[C@@H]2c3cccc4[nH]cc(c34)C[C@H]21 [CABERGOLINE]"
  value.observed: 9
- molecule: "COC(c1ccccc1)(c1ccccc1)[C@H](Oc1nc(C)cc(C)n1)C(=O)O [AMBRISENTAN]"
  value.observed: 2

Looking up CCC(=O)OCC(=O)[C@@]1(OC(=O)CC)[C@@H](C)C[C@H]2[C@@H]3CCC4=CC(=O)C=C[C@]4(C)[C@@]3(Cl)[C@@H](O)C[C@@]21C [BECLOMETHASONE DIPROPIONATE] , I see its Population Membrane Permeable-Phenotype (%) listed as 16

The reported Population Membrane Permeable-Phenotype (%) of the molecule O=c1nc2[nH]c3ccccc3nc-2c(=O)[nH]1 [ALLOXAZINE] was 3

# Population Membrane Permeable-Phenotype (%) (molecule: COc1cc2nc(N3CCN(C(=O)COc4c(OC)cccc4C(C)C)CC3)nc(N)c2cc1OC.Cl.Cl ) is 27

Recorded result, C[C@H](NC(=O)CNC(=O)c1cccc(Cl)c1)c1ccccc1 , Population Membrane Permeable-Phenotype (%): 4

The value of Population Membrane Permeable-Phenotype (%) measured for the molecule Cc1cc(-c2ccc3c(c2)CC[C@H]3N2CC3(CCN(C(=O)Cc4cn5cc(C)sc5n4)CC3)C2)ncn1 [PF-5190457] turned out to be 11

The recorded Population Membrane Permeable-Phenotype (%) for CC(C)(O)C(=O)N1CCN(c2ccc(C(F)(F)F)c(C3=C(c4c[nH]c5ccccc45)C(=O)NC3=O)c2)CC1 is 17

Lab book: Population Membrane Permeable-Phenotype (%) of Cc1cc(NC(=O)NCCN2CCC(O)(Cc3ccccc3)CC2)c2ccccc2n1 [PALOSURAN] noted as 7

# Population Membrane Permeable-Phenotype (%) of O=c1ccc2ccc(OCCCCN3CCN(c4cccc5sccc45)CC3)cc2[nH]1 [BREXPIPRAZOLE] = 70

Briefly, Population Membrane Permeable-Phenotype (%) measured for CCn1c(-c2nc3cc(C(=O)N4CCCC(N)C4)ccc3n2C)cc2ccccc21.Cl (stereo not given) : 24

Kindly note the recorded Population Membrane Permeable-Phenotype (%) for N[C@](CC1c2ccccc2Oc2ccccc21)(C(=O)O)[C@H]1C[C@@H]1C(=O)O , which is 7
